# assay target: thromboxane synthetase enzyme (Rattus norvegicus)
# Construct: from tissue; host or cells: washed blood platelets from Okamoto-Aoki spontaneously hypertensive rats (SHR)
# Sequence (P49430 1-533): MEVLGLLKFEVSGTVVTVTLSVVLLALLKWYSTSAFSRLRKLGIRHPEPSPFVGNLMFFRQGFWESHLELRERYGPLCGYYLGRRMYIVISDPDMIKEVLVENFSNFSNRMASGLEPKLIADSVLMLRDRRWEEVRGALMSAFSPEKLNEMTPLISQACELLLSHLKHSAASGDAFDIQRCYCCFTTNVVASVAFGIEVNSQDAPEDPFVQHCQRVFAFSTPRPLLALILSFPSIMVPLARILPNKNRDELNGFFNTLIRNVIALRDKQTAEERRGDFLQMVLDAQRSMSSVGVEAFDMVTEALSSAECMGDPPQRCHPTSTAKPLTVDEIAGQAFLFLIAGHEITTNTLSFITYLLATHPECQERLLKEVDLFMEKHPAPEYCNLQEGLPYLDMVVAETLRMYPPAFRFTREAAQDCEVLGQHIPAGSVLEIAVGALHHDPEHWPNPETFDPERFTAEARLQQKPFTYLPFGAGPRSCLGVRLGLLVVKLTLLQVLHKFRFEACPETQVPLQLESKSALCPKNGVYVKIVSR
# assay info: Inhibition of thromboxane (TXB2) formation in washed rat platelets, TXB2 radioimmunoassay
# Assay type: biochemical, Okamoto-Aoki spontaneously hypertensive rats (SHR)
# test settings: Concentration 1x10^-4M, platelet suspension incubated 10 minutes at 37 °C
measurement type: inhibition at 100 µM (%)
Give the value in % but do not write % after it.

Consider the reported inhibition at 100 µM for these molecules:
Q. Answer with reported inhibition at 100 µM of COc1ccc2nc(NCCCCc3cccnc3)cc(C)c2c1 [Example 106]
A. 97

Q. Give me measured inhibition at 100 µM, please, for this molecule: CC(=O)N(CCCn1ccnc1)c1cc(C)c2ccccc2n1 [Example 83]
A. 90

Q. Identify the reported inhibition at 100 µM for the following entry. Cc1nc(NCCCn2ccnc2)ccc1C#N [Example 30]
A. 94

Q. Input CC(=O)N(CCCn1ccnc1)c1ccc([N+](=O)[O-])cn1 [Example 58] , output reported inhibition at 100 µM.
A. 83

Proceed to the following item.
Q. For the molecule Cc1cc(NCCCn2ccnc2)nc2nc(N)ccc12 [Example 34] , report inhibition at 100 µM.
A. 98
